Taken from ChEMBL document CHEMBL1201862.

Tested on: TK-10
Test: NCI tumour cell line growth inhibition, 48 h
Calls of active or inactive are those of the source. Cut-off read from the data, not from the text of the source: active = GI50 up to about 1.1 µM and inactive = higher.
property: GI50

compound: O=C1CC2(CCC3=C(O2)c2ccccc2NC(=O)C3)C(=O)c2ccccc2N1 (centres undefined)
result: > 100 µM (inactive)

compound: CN(C)CCCC1c2ccccc2Oc2ccc(C(F)(F)F)cc21 (centres undefined)
result: 15.6 µM (inactive)

compound: CC1OC2=N[C@@H]1C(=O)N[C@@H](C(C)C)C1=N[C@H](C(=O)N[C@@H](C(C)C)C3=N[C@H](C(=O)N[C@@H](C(C)C)C4=N[C@H](C(=O)N[C@H]2C(C)C)C(C)O4)C(C)O3)C(C)O1 (some centres undefined)
result: > 10 µM (inactive)

compound: Cc1ccc(/N=C2\OP(=O)(Nc3ccc(C)cc3)Oc3ccccc32)cc1 (centres undefined)
result: > 100 µM (inactive)

compound: C[S+]=c1sc2ccccc2s1
result: > 100 µM (inactive)

compound: N#C/N=C(/N)c1sc2nc3c(c(-c4ccc(Br)cc4)c2c1N)CCCC3
result: 33.1 µM (inactive)

compound: COc1ccc2c(c1)CCC/C2=N\NS(=O)(=O)c1c(C)cc(C)cc1C
result: 51.4 µM (inactive)

compound: O=C1C=C(O)C(=O)c2c(O)ccc(O)c21
result: > 100 µM (inactive)

compound: NC1=Nc2cc(Cl)ccc2Sc2nc3ccccc3n21
result: > 88.9 µM (inactive)

----------
System: HCC 2998
Assay: NCI tumour cell line growth inhibition, 48 h
Activity calls are given as the source filed them. Cut-off read from the data, not from the text of the source: active = GI50 up to about 1.1 µM and inactive = higher.
Outcomes: active, inactive

compound: CN(C)CCNc1ccc(NCCN(C)C)c2c1C(=O)c1ncsc1C2=O
class_label: inactive
//
compound: CCOC(=O)c1c(N/C(S)=N/c2ccccc2)sc2c1CCOC2
class_label: inactive
//
compound: Cc1cc(S(=O)(=O)Nc2nc3ccccc3nc2-c2ccc(Cl)cc2)c(S)cc1Cl
class_label: inactive
//
compound: CCOC(=O)/C=C/C1(CCOC(C)=O)CCCCC1
class_label: inactive
//
compound: COc1ccc(-c2cc3c(nn2)-c2ccccc2C3=O)cc1
class_label: inactive
//
compound: CCc1nnc(S)n1/N=C\c1ccc(-c2ccccc2Cl)o1
class_label: inactive
//
compound: O=c1c2cc(Cl)cc(Cl)c2oc2nc3n(c(=O)c12)CCCS3
class_label: inactive
//
compound: C[C@@H](N[C@H]1CCC[C@@H]1O)c1ccccc1.C[C@@H](N[C@H]1CCC[C@H]1O)c1ccccc1
class_label: inactive
//
compound: O=C1/C(=C\c2ccc(Cl)cc2)N=C(c2ccccc2)N1n1c(=O)cn[nH]c1=S
class_label: inactive
//
compound: O=C(O)CNc1c2ccccc2[n+]([O-])c2ccccc12
class_label: inactive
//
compound: O=C(C(=O)n1ccc2ccccc21)c1c[nH]c2ccccc12
class_label: inactive
//
compound: C=C1C[C@@H]2CC[C@@]34CC5O[C@H]6C(O[C@H]7CC[C@H](CC(=O)O[C@@H]8[C@@H](C)[C@@H]9O[C@@H]%10C[C@]%11(C[C@@H]%12O[C@]%13(C[C@H](C)[C@@H]%14O[C@@H]%15CC(C(O)CO)O[C@@H]%15C[C@@H]%14O%13)C[C@H](C)[C@@H]%12O%11)O[C@@H]%10C[C@@H]9O[C@H]8CC8O[C@@H](CC[C@@H]1O2)C[C@@H](C)C8(O)CO)O[C@@H]7[C@@H]6O3)[C@H]5O4 (stereo partly drawn)
class_label: active
//
compound: Cc1sc2nc3n(c(=O)c2c1C)N=CN(c1ccc(F)cc1)C3
class_label: inactive
//
compound: CC(N)(CC(O)(C(F)(F)Cl)C(F)(F)Cl)C(=O)O (stereo not drawn)
class_label: inactive
//
compound: CSCCC(NC(=O)C(Cc1ccccc1)NC(=O)CNC(=O)CNC(=O)C(N)Cc1ccc(O)cc1)C(=O)O (stereo not drawn)
class_label: inactive
//
compound: CC(=O)Nc1ccc2[nH]c(C(=O)N3CC(CCl)c4c3cc([N+](=O)[O-])c3ccccc43)cc2c1 (stereo not drawn)
class_label: inactive
//
compound: COc1cc([C@@H]2c3cc4c(cc3[C@@H](c3c(O)cc(O)c5c3O[C@H](c3ccc(O)c(O)c3)[C@H](OC(=O)c3cc(O)c(O)c(O)c3)C5)[C@H]3COC(=O)[C@H]23)OCO4)cc(OC)c1OC
class_label: inactive
//
compound: CC1(C)[N+]([O-])=[N+]([O-])C1(C)Br (stereo not drawn)
class_label: inactive
